# target entity: T1, natural Fel d1 (Indoor Biotech, #NA-FD1-2) (cat, UniProt P30438 23-92; P30440 18-109)
# T1 construct: Bought natural heterodimeric glycoprotein, chains linked by disulfide bonds; also called nFel d1; nFel d 1
# T1 sequence (P30438 other isoform, or with tags, fused parts or gaps, chain 1 of 2): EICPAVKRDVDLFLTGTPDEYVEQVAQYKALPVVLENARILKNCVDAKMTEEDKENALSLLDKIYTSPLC
# T1 sequence (P30440 18-109, chain 2 of 2): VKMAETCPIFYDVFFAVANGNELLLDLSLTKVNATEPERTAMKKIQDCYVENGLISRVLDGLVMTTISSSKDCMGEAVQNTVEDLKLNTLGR
# experimental details: Octet BLI, mAb captured on anti-hFc tip, 500 nM nFel d1
Amount of 500 nM nFel d1 Bound listing for selected binders.

# example entries with known answers
H4H2645P (antibody, human IgG4, V domains shown, human IgG4 Fc (H4H prefix)) VH: EVQLVESGGGLVQPGGSLRLSCAASGFTFSTYAMHWVRQAPGKGLEWVSSISGRGRNSDHADSVKGRFTISRDNSKNTLYLQMNSLRAEDTAVYYCARTEYFHHWGQGTLVTVSS VL: DIQMTQSPSSLSASVGDRITITCRASQDINNYLAWFQQKPGKAPKSLIYGASSLQSGVPSKFSGSGSGTDFTLTISSLQPEDFATYYCQQYSSYPFTFGPGTKVDIK = 0.1 nm
H4H1616N (antibody, human IgG4, V domains shown, human IgG4 Fc (H4H prefix)) VH: EVELLESGGGLVQPGGSLRLSCAASGFTFSSYAMSWVRQAPGKGLEWVSSISGRVGSTHFADSVKGRFTFSRDNSKNTLYLQLSSLRAEDTAVYYCARSRGAAYFDYWGQGTLVTVSS VL: DIQMTQSPSSLSASVGDRVTITCQANQDISNFLNWYQQRPGKAPNLLIYAASNLETGVPSRFSGSGSGTDFTFTISSLQPEDIATYYCQHYDNFPFTFGPGTKVDIK = 0.09 nm

Could you now consider this next binder?
Asked: Identify the reported Amount of 500 nM nFel d1 Bound for the following entry. H4H2864P (antibody, human IgG4, V domains shown, human IgG4 Fc (H4H prefix)) VH: EVQLVESGGGLAQPGGSLRLSCAASGFTFNNYAMTWVRQAPGKGLDWVSAISDSGRSTFSADSVKGRFTISRDNSKNTLYLQMDSLRAEDTALYYCAKHRNWNYPVFDYWGQGTLVTVSS VL: DIQLTQSPSFLSASVGDRVTITCWASQGISSYLAWYQQKPGKAPKLLIYSASTLQSGVPSRFSGSGSGTEFTLTISSLQPEDFATYYCQQLNSYPFTFGPGTKVDIK
Given back: 0.08 nm
